# Target or test system: HMG-CoA reductase (Rattus norvegicus)
# Sequence (P51639 1-887): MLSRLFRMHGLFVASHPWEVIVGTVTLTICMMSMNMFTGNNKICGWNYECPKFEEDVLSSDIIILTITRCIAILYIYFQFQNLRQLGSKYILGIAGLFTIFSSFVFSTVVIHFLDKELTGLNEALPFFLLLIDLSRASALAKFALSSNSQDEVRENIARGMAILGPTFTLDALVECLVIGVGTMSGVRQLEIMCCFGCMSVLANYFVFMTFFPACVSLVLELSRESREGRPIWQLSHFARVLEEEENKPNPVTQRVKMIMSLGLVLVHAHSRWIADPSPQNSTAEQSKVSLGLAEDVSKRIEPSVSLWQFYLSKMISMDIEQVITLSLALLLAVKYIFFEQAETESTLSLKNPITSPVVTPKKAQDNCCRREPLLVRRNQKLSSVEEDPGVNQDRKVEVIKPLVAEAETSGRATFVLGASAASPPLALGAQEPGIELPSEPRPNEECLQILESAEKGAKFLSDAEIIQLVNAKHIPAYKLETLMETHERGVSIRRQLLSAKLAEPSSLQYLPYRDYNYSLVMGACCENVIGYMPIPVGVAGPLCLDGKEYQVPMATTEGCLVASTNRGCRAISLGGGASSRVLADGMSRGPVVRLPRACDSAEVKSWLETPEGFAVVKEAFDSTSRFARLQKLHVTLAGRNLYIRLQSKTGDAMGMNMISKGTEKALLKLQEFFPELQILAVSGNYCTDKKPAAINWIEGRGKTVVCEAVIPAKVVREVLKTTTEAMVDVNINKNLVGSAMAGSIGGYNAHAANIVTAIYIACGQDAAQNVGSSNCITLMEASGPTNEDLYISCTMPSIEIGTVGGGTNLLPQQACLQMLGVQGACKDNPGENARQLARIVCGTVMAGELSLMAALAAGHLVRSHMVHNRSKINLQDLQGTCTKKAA
pIC50: −log10 of the molar value.
Property measured: pIC50

1. CC[C@H](C)C(=O)O[C@H]1C[C@H](O)C=C2C=C[C@H](C)[C@H](CC[C@@H](O)C[C@@H](O)CC(=O)O)[C@H]21 ... 5.36
